Target: Beta-secretase 1 (Homo sapiens, UniProt P56817)
Sequence (P56817 whole entry): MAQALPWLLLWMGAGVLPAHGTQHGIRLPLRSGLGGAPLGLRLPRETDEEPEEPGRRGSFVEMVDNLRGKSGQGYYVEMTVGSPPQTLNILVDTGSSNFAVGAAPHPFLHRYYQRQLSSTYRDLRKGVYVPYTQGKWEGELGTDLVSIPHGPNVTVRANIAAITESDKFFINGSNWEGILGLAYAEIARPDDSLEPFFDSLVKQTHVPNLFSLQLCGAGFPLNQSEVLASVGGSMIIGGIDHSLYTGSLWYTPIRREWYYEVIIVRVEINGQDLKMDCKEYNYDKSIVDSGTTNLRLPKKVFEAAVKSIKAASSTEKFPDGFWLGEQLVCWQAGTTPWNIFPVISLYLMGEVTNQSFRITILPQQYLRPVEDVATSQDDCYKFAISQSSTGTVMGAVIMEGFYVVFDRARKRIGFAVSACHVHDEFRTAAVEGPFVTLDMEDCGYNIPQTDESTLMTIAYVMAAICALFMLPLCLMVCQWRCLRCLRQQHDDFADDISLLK
Assay: Inhibition of BACE by secreted APPbeta release assay
pIC50: −log10 of the molar value.
Reported metric: pIC50

compound="CC#Cc1cncc(-c2ccc3c(c2)C2(N=C(C)C(N)=N2)C2(CCC(OC)CC2)O3)c1 (stereo unspecified)" readout_value=8.66
